Just for reference, patent US4900730A is where these values come from.

# Cephalothin disappeared by absorption, Osmotic pressure (%) X 2 listing for each entry below
# Assay overview: Rectal circulation: Cephalothin disappeared by absorption (Examples 10-14, 16-18)
# Conditions used: rat, in vivo
# number only, unit % dropped from output

>>> measured_result("O=C(O)CCCCCC(=O)O [Pimellic acid, pimellic acid]")
7.8
>>> measured_result("O=C([O-])C(=O)C(=O)[O-].[Na+].[Na+] [Sodium ketomalonate, sodium ketomalonate]")
12.7
>>> measured_result("O=C(O)CN(CC(=O)O)CC(O)CN(CC(=O)O)CC(=O)O [DTPA-OH, diaminopropanoltetraacetic acid]")
13.7

Could you now look at the following compound, please?
// lookup Cephalothin disappeared by absorption, Osmotic pressure (%) X 2 for CC(=O)OCC1=C(C(=O)O)N2C(=O)[C@@H](NC(=O)Cc3cccs3)[C@H]2SC1 [Cephalothin.Na, reference compound]
1.6

----------
# Assay overview: Rectal circulation: Cephalothin disappeared by absorption (Examples 10-14, 16-18)
# Conditions used: rat, in vivo
Measured property: Cephalothin disappeared by absorption, Osmotic pressure (%) X 2
# number only, unit % dropped from output

Solved entries (count: 3):
>>> measured_result("O=C(O)CNCC(=O)O")
14.2
>>> measured_result("CC(=O)C(=O)[O-].[Na+] [Sodium pyruvate, sodium pyruvate]")
11.6
>>> measured_result("O=C(O)CCC(=O)O")
13.1

// lookup Cephalothin disappeared by absorption, Osmotic pressure (%) X 2 for `CC(=O)CCC(=O)O`
21.1

// lookup Cephalothin disappeared by absorption, Osmotic pressure (%) X 2 for `CCC(=O)C(=O)O`
18.3

// lookup Cephalothin disappeared by absorption, Osmotic pressure (%) X 2 for `CCC(C(=O)O)C(=O)O`
24.2

// lookup Cephalothin disappeared by absorption, Osmotic pressure (%) X 2 for O=C(O)CN(CC(=O)O)C1CCCCC1N(CC(=O)O)CC(=O)O (stereo not drawn) [CyDTA, trans-cyclohexanediaminetetraacetic acid]
15.0

// lookup Cephalothin disappeared by absorption, Osmotic pressure (%) X 2 for `CCCC(=O)C(=O)O`
14.7

----------
# Assay overview: Rectal circulation: Cephalothin disappeared by absorption (Examples 10-14, 16-18)
# Conditions used: rat, in vivo
Label scheme for Cephalothin disappeared by absorption, Osmotic pressure X 4: lower than 20 percents is f, 20 percents and above is t.

Example cases with answers are listed next.
>>> assigned_class("NCCCCCC(=O)O")
"f"
>>> assigned_class("NC(C(=O)O)c1ccccc1 (racemic)")
"t"

In plain terms: is recorded Cephalothin disappeared by absorption, Osmotic pressure X 4 at least 20 percents for NCC(=O)NC(CC(=O)O)C(=O)O (racemic) ?
f

In plain terms: is recorded Cephalothin disappeared by absorption, Osmotic pressure X 4 at least 20 percents for `N[C@@H](CC(C(=O)O)C(=O)O)C(=O)O` ?
t

In plain terms: is recorded Cephalothin disappeared by absorption, Osmotic pressure X 4 at least 20 percents for NC(Cc1ccccc1)C(=O)O (racemic) ?
f

In plain terms: is recorded Cephalothin disappeared by absorption, Osmotic pressure X 4 at least 20 percents for `CN(C)[C@@H](Cc1ccccc1)C(=O)O` ?
t

In plain terms: is recorded Cephalothin disappeared by absorption, Osmotic pressure X 4 at least 20 percents for CCC(NC(=O)CN)C(=O)O (racemic) ?
t

In plain terms: is recorded Cephalothin disappeared by absorption, Osmotic pressure X 4 at least 20 percents for `O=C[C@H](O)[C@@H](O)[C@@H](O)[C@H](O)C(=O)O` ?
f

In plain terms: is recorded Cephalothin disappeared by absorption, Osmotic pressure X 4 at least 20 percents for NC(CS(=O)(=O)O)C(=O)O (racemic) ?
f

In plain terms: is recorded Cephalothin disappeared by absorption, Osmotic pressure X 4 at least 20 percents for CC(=O)OCC1=C(C(=O)O)N2C(=O)[C@@H](NC(=O)Cc3cccs3)[C@H]2SC1 [Cephalothin.Na, reference compound] ?
f
